Sourced from ChEMBL document CHEMBL1138857

target: Mineralocorticoid receptor (Homo sapiens); assay: Inhibition of tetramethylrhodamine labeled dexamethasone binding to MR by FP assay
Sequence (P08235 whole entry): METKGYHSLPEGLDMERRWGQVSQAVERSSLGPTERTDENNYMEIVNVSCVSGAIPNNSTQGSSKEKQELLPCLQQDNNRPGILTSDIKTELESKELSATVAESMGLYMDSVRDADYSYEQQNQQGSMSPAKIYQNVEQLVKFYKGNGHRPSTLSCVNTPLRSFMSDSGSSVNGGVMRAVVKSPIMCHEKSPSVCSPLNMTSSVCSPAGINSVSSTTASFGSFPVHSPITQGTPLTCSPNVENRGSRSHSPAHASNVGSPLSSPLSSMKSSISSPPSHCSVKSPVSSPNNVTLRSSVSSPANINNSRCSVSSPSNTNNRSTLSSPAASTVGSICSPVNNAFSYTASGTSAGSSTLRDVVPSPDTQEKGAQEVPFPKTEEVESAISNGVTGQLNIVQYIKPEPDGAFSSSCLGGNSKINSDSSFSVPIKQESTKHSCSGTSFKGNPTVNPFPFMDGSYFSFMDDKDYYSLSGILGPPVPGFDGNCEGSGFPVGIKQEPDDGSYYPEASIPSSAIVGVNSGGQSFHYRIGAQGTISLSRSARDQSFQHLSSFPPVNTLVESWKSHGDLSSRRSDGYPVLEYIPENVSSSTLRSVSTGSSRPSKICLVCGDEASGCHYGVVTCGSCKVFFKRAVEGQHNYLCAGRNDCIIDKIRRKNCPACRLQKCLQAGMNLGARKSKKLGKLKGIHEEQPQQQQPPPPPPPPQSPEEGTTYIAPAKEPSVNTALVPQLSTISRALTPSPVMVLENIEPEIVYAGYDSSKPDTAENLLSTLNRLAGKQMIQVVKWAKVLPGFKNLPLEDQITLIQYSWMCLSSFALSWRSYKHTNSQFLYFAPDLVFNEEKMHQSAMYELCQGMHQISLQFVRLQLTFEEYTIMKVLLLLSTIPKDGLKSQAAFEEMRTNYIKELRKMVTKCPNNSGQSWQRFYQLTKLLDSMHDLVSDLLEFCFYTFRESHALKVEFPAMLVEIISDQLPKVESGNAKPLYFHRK
Can you tell me IC50 for the items I'm about to list?
Report as a plain number; the unit µM is understood.

Prompt: Please report IC50 for the following compound: COc1ccc(F)cc1C(C)(C)CC(O)(Cn1cnc2ccccc21)C(F)(F)F (stereo not given)
Completion: 0.775

Prompt: Please report IC50 for the following compound: CC(C)(CC(O)(Cn1ccc(=O)c2ccccc21)C(F)(F)F)c1ccc(F)cc1O (stereo not given)
Completion: 0.88

Prompt: Please report IC50 for the following compound: Cc1ccccc1C(C)(C)CC(O)(Cn1ccc(=O)c2ccccc21)C(F)(F)F (stereo not given)
Completion: 0.15

Prompt: Please report IC50 for the following compound: COc1ccc(F)cc1C(C)(C)CC(O)(CN1CCCc2ccccc21)C(F)(F)F (stereo not given)
Completion: 1.6

----------
MEASURED PROPERTY: IC50 (nM)
Report as a plain number; the unit nM is understood.

Prompt: State IC50 (Glucocorticoid receptor (Homo sapiens)) of COc1ccc(F)cc1C(C)(C)CC(O)(CN1C[C@H](C)O[C@@H](C)C1)C(F)(F)F (stereo partly specified) .
Completion: 110

Prompt: State IC50 (Glucocorticoid receptor (Homo sapiens)) of COc1ccc(C)c(C(C)(C)CC(O)(Cn2ccc(=O)c3ccccc32)C(F)(F)F)c1 (stereo unspecified) .
Completion: 11

Prompt: State IC50 (Glucocorticoid receptor (Homo sapiens)) of Cc1ccc(F)cc1C(C)(C)CC(O)(Cn1ccc(=O)c2ccccc21)C(F)(F)F (stereo unspecified) .
Completion: 10

Prompt: State IC50 (Glucocorticoid receptor (Homo sapiens)) of COc1ccc(F)cc1C(C)(C)CC(O)(Cn1cnc(=O)c2ccccc21)C(F)(F)F (stereo unspecified) .
Completion: 690

Prompt: State IC50 (Glucocorticoid receptor (Homo sapiens)) of COc1ccc(F)cc1C(C)(C)CC(O)(CN1CCOc2ccccc21)C(F)(F)F (stereo unspecified) .
Completion: 15

Prompt: State IC50 (Glucocorticoid receptor (Homo sapiens)) of Cc1ccc(F)cc1C(C)(C)CC(O)(Cn1ccc(=O)c2cnccc21)C(F)(F)F (stereo unspecified) .
Completion: 48

Prompt: State IC50 (Glucocorticoid receptor (Homo sapiens)) of CC(C)(CC(O)(Cn1ccc(=O)c2ccccc21)C(F)(F)F)c1ccccc1 (stereo unspecified) .
Completion: 28

Prompt: State IC50 (Glucocorticoid receptor (Homo sapiens)) of COc1ccc(F)cc1C(C)(C)CC(O)(CN1C[C@@H](C)C(=O)[C@@H](C)C1)C(F)(F)F (stereo partly specified) .
Completion: 10

Prompt: State IC50 (Glucocorticoid receptor (Homo sapiens)) of COc1ccc(F)cc1C(C)(C)CC(O)(CN1CCC(=O)CC1)C(F)(F)F (stereo unspecified) .
Completion: 1400

Prompt: State IC50 (Glucocorticoid receptor (Homo sapiens)) of COc1ccc(F)cc1C(C)(C)CC(O)(CN1C[C@@H](C)O[C@@H](C)C1)C(F)(F)F (stereo partly specified) .
Completion: 38

Prompt: State IC50 (Glucocorticoid receptor (Homo sapiens)) of CC(C)(CC(O)(Cn1ccc(=O)c2ccccc21)C(F)(F)F)c1cc(F)ccc1O (stereo unspecified) .
Completion: 5

Prompt: State IC50 (Glucocorticoid receptor (Homo sapiens)) of COc1ccc(F)cc1C(C)(C)CC(O)(Cn1cc(C)c(=O)c(C)c1)C(F)(F)F (stereo unspecified) .
Completion: 120

Prompt: State IC50 (Glucocorticoid receptor (Homo sapiens)) of COc1ccc(F)cc1C(C)(C)CC(O)(Cn1cnc2ccccc21)C(F)(F)F (stereo unspecified) .
Completion: 54

Prompt: State IC50 (Glucocorticoid receptor (Homo sapiens)) of CC(C)(CC(O)(Cn1ccc(=O)c2ccccc21)C(F)(F)F)c1ccc(F)cc1O (stereo unspecified) .
Completion: 3

Prompt: State IC50 (Glucocorticoid receptor (Homo sapiens)) of COc1ccc(F)cc1C(C)(C)CC(O)(CN1CCC(=O)c2ccccc21)C(F)(F)F (stereo unspecified) .
Completion: 4

Prompt: State IC50 (Glucocorticoid receptor (Homo sapiens)) of COc1ccc(F)cc1C(C)(C)CC(O)(CN1CCCc2ccccc21)C(F)(F)F (stereo unspecified) .
Completion: 950

Prompt: State IC50 (Glucocorticoid receptor (Homo sapiens)) of COc1ccc(F)cc1C(C)(C)CC(O)(Cn1ccc(=O)c2ncccc21)C(F)(F)F (stereo unspecified) .
Completion: 77

Prompt: State IC50 (Glucocorticoid receptor (Homo sapiens)) of CC(C)(CC(O)(Cn1ccc(=O)c2ccccc21)C(F)(F)F)c1cccc2c1OCC2 (stereo unspecified) .
Completion: 4

Prompt: State IC50 (Glucocorticoid receptor (Homo sapiens)) of COc1ccc(F)cc1C(C)(C)CC(O)(Cn1cc(C)nc1C)C(F)(F)F (stereo unspecified) .
Completion: 650

Prompt: State IC50 (Glucocorticoid receptor (Homo sapiens)) of Cc1cn(CC(O)(CC(C)(C)c2cccc3c2OCC3)C(F)(F)F)cc(C)c1=O (stereo unspecified) .
Completion: 34
